Test name: Inhibition of Rubella virus strain THERIEN in Vero cells after 48 hrs of high multiplicity infection by plaque assay
Format: functional
Design: concentration or dose not given beside the values
Item-by-item account of Inhibition
# value in %; strip the unit string

Worked cases, answers included:
INSERT INTO results (mol_smiles, output_unit, reported_measurement) VALUES
  ('CCCN(C)c1cc(CCO)nc(SC)n1', '%', 94.2),
  ('CCCCN(CCCC)c1cc(CCO)nc(SC)n1', '%', 87),
  ('CCCCCNc1nc(SC)nc(CCO)c1I', '%', 95.1);

Prompt: Requested read-out: Inhibition. Entry: C#CCN(C)c1cc(CCO)nc(SC)n1
Completion: 92.1

Prompt: Requested read-out: Inhibition. Entry: C=CCN(CC=C)c1cc(CCO)nc(SC)n1
Completion: 54.7

Prompt: Requested read-out: Inhibition. Entry: CSc1nc(CCO)cc(N2CCSC2)n1
Completion: 95.3

Prompt: Requested read-out: Inhibition. Entry: CSc1nc(CCO)cc(N(CCO)CCO)n1
Completion: 95.7

Prompt: Requested read-out: Inhibition. Entry: C#CCNc1cc(CCO)nc(SC)n1
Completion: 98.8

Prompt: Requested read-out: Inhibition. Entry: COc1ccc(Nc2cc(CCO)nc(SC)n2)cc1
Completion: 43.3

Prompt: Requested read-out: Inhibition. Entry: CCCN(CCC)c1cc(CCO)nc(SC)n1
Completion: 0

Prompt: Requested read-out: Inhibition. Entry: C#CCNc1nc(SC)nc(CCO)c1Cl
Completion: 85.4

Prompt: Requested read-out: Inhibition. Entry: CSc1nc(CCO)cc(N2CCSCC2)n1
Completion: 45.2

Prompt: Requested read-out: Inhibition. Entry: CSc1nc(CCO)cc(N2CCN(C(C)=O)CC2)n1
Completion: 65.6

Prompt: Requested read-out: Inhibition. Entry: C#CCNc1nc(SC)nc(CCO)c1Br
Completion: 94.4

---

Test name: Cytotoxicity against Vero cells after 48 hrs
Format: cell-based
Condition: chlorocebus sabaeus
Item-by-item account of CC50 at 48 h
# value in µM; strip the unit string

Prompt: Requested read-out: CC50 at 48 h. Entry: C=CCN(CC=C)c1cc(CCO)nc(SC)n1
Completion: 249

Prompt: Requested read-out: CC50 at 48 h. Entry: C#CCN(C)c1cc(CCO)nc(SC)n1
Completion: 1050

Prompt: Requested read-out: CC50 at 48 h. Entry: CSc1nc(CCO)cc(N2CCC(C)CC2)n1
Completion: 233
